assay: chemical genetic growth profiling, strain panel (AID 1159580);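 further: tested at 20 µM; growth read once vehicle control cultures reached saturation at 30 °C; lower values mean less growth of the strain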; conditions: S. cerevisiae deletion strains, growth OD, locus YAL021C, strain ccr4
The whole screen tested about 5,500 compounds, of which about 2,000 (36%) were called active. About 18% were inconclusive and are not listed. No stated cut-off is given here; in the data, active means normalized growth mostly below about 0.91 (no sharp cut-off); inconclusive means no clear call, values can overlap the other calls; inactive means mostly above about 0.92. Some of the results follow. Where a SMILES comes first, the peptide text is derived from it.
Please reply with one of these outcomes: active, inactive

Worked cases, answers included:
NC1(C(=O)O)CCCC1 ... inactive
COc1ccc2nc(S(=O)Cc3ncc(C)c(OC)c3C)[nH]c2c1 (stereo unspecified) ... active
CC1OC(O[C@H]2/C=C/C=C/C=C/C=C/C=C/C=C/C=C/[C@H](C)[C@@H](O)[C@@H](C)[C@H](C)OC(=O)CC(O)CC(O)CCC(O)C(O)CC(O)C[C@]3(O)C[C@H](O)C(C(=O)O)C(C2)O3)C(O)[C@H](N)C1O (stereo partly specified) ... active

Task: Which result was noted for this molecule in the test: `O=NN(CCCl)C(=O)NCCCl`
Result: inactive

Task: Returns: the outcome recorded for CC(=O)O[C@H]1C[C@@]2(C)[C@@H](C[C@@H](O)C3[C@]2(C)CC[C@H]2[C@H](C)[C@H](O)CC[C@]32C)/C1=C(/CCC=C(C)C)C(=O)O (stereo partly specified) in this assay.
Result: inactive

Task: Lab log entry: `O=C1CCCN1CC#CCN1CCCC1` — outcome as called in the assay?
Result: inactive

Task: Outcome? CN(C)CCC(c1ccccc1)c1ccccn1 (stereo unspecified)
Result: inactive

Task: What is the recorded call for this molecule in the test? `CCCn1c(=O)c2[nH]c(C3CCCC3)nc2n(CCC)c1=O`
Result: inactive

Task: GET /call?item= `Cc1nnc(NS(=O)(=O)c2ccc(N)cc2)s1` returns the recorded outcome of this test.
Result: inactive

Task: Look up the recorded call for COc1ccc(CCC(=O)c2c(O)cc(O[C@@H]3O[C@H](CO)C(O)[C@H](O)C3O[C@@H]3O[C@@H](C)[C@H](O)[C@@H](O)[C@H]3O)cc2O)cc1O (stereo partly specified) in this test.
Result: inactive

Task: Kindly provide the recorded test outcome for the following molecule: `NC(N)=NCCN1CCCCCCC1`
Result: inactive

Task: What outcome does the record of this test show for `COc1c(C)c2c(c(O)c1C/C=C(\C)CCC(=O)O)C(=O)OC2` ?
Result: active

Task: Recorded call for CC(=O)OCC(=O)[C@@]1(O)CCC2C3CCC4=CC(=O)C=CC4(C)C3[C@@H](O)C[C@@]21C (stereo partly specified) ?
Result: inactive

Task: What outcome does the record of this test show for CC(=O)N[C@@H](CC(=O)O)C(=O)N[C@@H](CCC(=O)O)C(=O)O (Ac-Asp-Glu-OH) ?
Result: inactive
